Settings: 303 K; 101.3 kPa; Liquid; Frequency=3 MHz; Sing-around technique in a fixed-path interferometer
READOUT_NAME: speed of sound (m/s)

- COMPOUND: "CCOc1ccccc1 [ethoxybenzene]"
  speed of sound (m/s): 1349
- COMPOUND: "C1CCOC1 [tetrahydrofuran]"
  speed of sound (m/s): 1254
- COMPOUND: "CN1CCCC1=O [N-methylpyrrolidone]"
  speed of sound (m/s): 1526
- COMPOUND: "CN(C)C=O [dimethylformamide]"
  speed of sound (m/s): 1437

----------
Conditions: 298 K; 101.3 kPa; Liquid; Frequency=3 MHz; Sing-around technique in a fixed-path interferometer
READOUT_NAME: speed of sound (m/s)

- MOLECULE: "CCOc1ccccc1 [ethoxybenzene]"
  speed of sound [m/s]: 1369
- MOLECULE: "CN(C)C=O [dimethylformamide]"
  speed of sound [m/s]: 1457
- MOLECULE: "CN1CCCC1=O [N-methylpyrrolidone]"
  speed of sound [m/s]: 1546
